System: Enterococcus sp.
Test: in vitro antibacterial evaluation, MIC by broth dilution
Assay type: cell-based
Details: broth dilution, 18 hours at 35° C.
Form field: MIC Enterococcus faecium (GC 4556) (one value per entry).
Give your result in µg/mL as a bare value.

Take a look at these entries with their results.
{"compound": "CC(c1ccccc1)C1NC(=O)CNC(=O)C(CO)NC(=O)C(C(O)C2CNC(=N)N2C2OC(CO)C(O)C(O)C2O)NC(=O)C(C(O)C2CNC(=N)N2)NC(=O)C(Cc2ccc(OC3OC(CO)C(OC4OC(COCC=C(c5ccccc5)c5ccccc5)C(O)C(O)C4O)C(O)C3O)cc2)NC1=O (stereo not shown)", "target system": "Enterococcus sp.", "u": "µg/mL", "measured number": 4}
{"compound": "CC(c1ccccc1)C1NC(=O)CNC(=O)C(CO)NC(=O)C(C(O)C2CNC(=N)N2C2OC(CO)C(O)C(O)C2O)NC(=O)C(C(O)C2CNC(=N)N2)NC(=O)C(Cc2ccc(OC3OC(CO)C(OC4OC(COC(=O)C(c5ccccc5)c5ccccc5)C(O)C(O)C4O)C(O)C3O)cc2)NC1=O (stereo not shown) [Example 96c]", "target system": "Enterococcus sp.", "u": "µg/mL", "measured number": 2}
{"compound": "CCCOc1ccc(COCC2OC(OC3C(CO)OC(Oc4ccc(CC5NC(=O)C(C(C)c6ccccc6)NC(=O)CNC(=O)C(CO)NC(=O)C(C(O)C6CNC(=N)N6C6OC(CO)C(O)C(O)C6O)NC(=O)C(C(O)C6CNC(=N)N6)NC5=O)cc4)C(O)C3O)C(O)C(O)C2O)cc1 (stereo not shown)", "target system": "Enterococcus sp.", "u": "µg/mL", "measured number": 4}

Reported MIC Enterococcus faecium (GC 4556) for CC(c1ccccc1)C1NC(=O)CNC(=O)C(CO[Si](C)(C)C(C)(C)C)NC(=O)C(C(O)C2CNC(=N)N2C2OC3COC(C)(C)OC3C3OC(C)(C)OC32)NC(=O)C(C(O)C2CNC(=N)N2)NC(=O)C(Cc2ccc(O)cc2)NC1=O (stereo not shown) : what is it? 32
